biological target: CRAF (Homo sapiens); test: Reaction Biology kinase HotSpot enzyme assay; format: biochemical; details: IC50 CRAF, 1 µM ATP; mean ± S.D. of two separate experiments
Sequence (P04049 whole entry): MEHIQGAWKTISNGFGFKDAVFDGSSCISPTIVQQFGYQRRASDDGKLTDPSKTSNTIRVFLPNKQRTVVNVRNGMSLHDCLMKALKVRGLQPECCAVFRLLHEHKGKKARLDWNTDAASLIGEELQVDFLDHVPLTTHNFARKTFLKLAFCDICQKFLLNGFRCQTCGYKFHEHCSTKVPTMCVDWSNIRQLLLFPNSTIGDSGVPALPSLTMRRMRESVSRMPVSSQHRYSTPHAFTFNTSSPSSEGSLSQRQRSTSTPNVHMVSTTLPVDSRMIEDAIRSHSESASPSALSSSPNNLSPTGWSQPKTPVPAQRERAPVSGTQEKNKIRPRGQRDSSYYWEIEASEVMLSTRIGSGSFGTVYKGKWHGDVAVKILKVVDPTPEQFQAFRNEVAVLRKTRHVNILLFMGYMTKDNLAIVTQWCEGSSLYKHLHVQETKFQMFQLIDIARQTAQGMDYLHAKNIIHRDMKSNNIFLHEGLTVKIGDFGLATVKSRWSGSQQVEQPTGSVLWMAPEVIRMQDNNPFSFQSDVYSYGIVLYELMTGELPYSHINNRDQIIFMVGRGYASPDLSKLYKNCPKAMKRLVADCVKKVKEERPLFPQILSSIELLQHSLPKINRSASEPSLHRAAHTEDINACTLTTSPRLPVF
Measurement kind: pIC50
Kindly note that pIC50 refers to -log10 of the concentration in mol/L and answer with the value alone.

Prompt line: Query: pIC50; subject: O=S(=O)(NCCCNc1nccc(-n2cnc3ccccc32)n1)c1cccc2ccccc12 [12n]
Response line: 5.75

----------
tested on: RPMI-8226; experiment: NCI 60 cell line screen; assay type: cell-based, human; details: Homo sapiens; RPMI-8226, Leukemia; read-out: Percent growth
Measurement kind: activity at 10 µM (%)
Quick reminder: number only, in %, skip the unit.

Prompt line: Query: activity at 10 µM; subject: O=S(=O)(NCCNc1nccc(-n2cnc3ccccc32)n1)c1ccc(C(F)(F)F)cc1 [12e]
Response line: 44.9

Prompt line: Query: activity at 10 µM; subject: O=S(=O)(NCCNc1nccc(-n2cnc3ccccc32)n1)c1ccccc1 [12a]
Response line: 84.9

Prompt line: Query: activity at 10 µM; subject: O=S(=O)(NCCCNc1nccc(-n2cnc3ccccc32)n1)c1ccc(Cl)cc1 [12j]
Response line: 78

Prompt line: Query: activity at 10 µM; subject: O=S(=O)(NCCCNc1nccc(-n2cnc3ccccc32)n1)c1cccc2ccccc12 [12n]
Response line: 69.7

Prompt line: Query: activity at 10 µM; subject: Cc1ccc(S(=O)(=O)NCCNc2nccc(-n3cnc4ccccc43)n2)cc1 [12g]
Response line: 52.5

Prompt line: Query: activity at 10 µM; subject: O=S(=O)(NCCNc1nccc(-n2cnc3ccccc32)n1)c1ccc(Cl)cc1 [12c]
Response line: 99.4

Prompt line: Query: activity at 10 µM; subject: COc1ccc(S(=O)(=O)NCCCNc2nccc(-n3cnc4ccccc43)n2)cc1 [12m]
Response line: 78.6

Prompt line: Query: activity at 10 µM; subject: O=S(=O)(NCCNc1nccc(-n2cnc3ccccc32)n1)c1ccc(F)cc1 [12b]
Response line: 73.6

Prompt line: Query: activity at 10 µM; subject: O=S(=O)(NCCNc1nccc(-n2cnc3ccccc32)n1)c1ccc(Br)cc1 [12d]
Response line: 79.8
